# systemTested: hERG potassium channel (Homo sapiens (Human))
# Sequence (Q12809 whole entry): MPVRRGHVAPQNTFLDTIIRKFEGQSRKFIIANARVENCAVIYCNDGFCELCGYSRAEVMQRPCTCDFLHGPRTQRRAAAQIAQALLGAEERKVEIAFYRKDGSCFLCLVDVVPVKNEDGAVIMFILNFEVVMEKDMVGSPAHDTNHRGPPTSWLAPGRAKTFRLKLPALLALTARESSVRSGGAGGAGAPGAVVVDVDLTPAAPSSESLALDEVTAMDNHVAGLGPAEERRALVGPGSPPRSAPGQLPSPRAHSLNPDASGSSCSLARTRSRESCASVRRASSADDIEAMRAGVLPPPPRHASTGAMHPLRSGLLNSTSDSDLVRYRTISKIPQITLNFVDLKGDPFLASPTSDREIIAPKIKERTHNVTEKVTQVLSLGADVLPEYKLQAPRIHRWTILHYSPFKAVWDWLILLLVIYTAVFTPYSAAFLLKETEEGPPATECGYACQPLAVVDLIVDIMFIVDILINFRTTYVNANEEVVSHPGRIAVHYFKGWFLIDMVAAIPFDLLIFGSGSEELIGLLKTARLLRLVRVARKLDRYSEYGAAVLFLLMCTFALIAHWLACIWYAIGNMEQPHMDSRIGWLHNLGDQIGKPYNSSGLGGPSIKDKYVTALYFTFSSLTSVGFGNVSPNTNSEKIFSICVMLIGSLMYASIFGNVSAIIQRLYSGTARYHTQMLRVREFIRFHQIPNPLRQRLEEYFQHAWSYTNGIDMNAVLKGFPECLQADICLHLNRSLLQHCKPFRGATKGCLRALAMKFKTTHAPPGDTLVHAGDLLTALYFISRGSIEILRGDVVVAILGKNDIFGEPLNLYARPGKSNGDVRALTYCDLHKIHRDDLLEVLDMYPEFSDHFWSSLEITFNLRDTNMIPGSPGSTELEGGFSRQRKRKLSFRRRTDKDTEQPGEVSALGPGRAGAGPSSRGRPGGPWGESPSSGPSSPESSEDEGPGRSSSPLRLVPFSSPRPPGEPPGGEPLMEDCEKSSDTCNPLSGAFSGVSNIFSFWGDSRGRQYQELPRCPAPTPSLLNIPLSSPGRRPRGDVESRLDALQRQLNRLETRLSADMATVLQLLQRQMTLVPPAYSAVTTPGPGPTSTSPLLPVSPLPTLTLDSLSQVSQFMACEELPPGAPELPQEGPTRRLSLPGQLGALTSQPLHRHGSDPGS
# test: hERG binding assay (automated patch clamp, CHO cells)
# Assay type: cell-based
# assayContext: CHO cell line, Nanion Syncropatch 384PE
# Description: Reagent preparations include: • 1. Cell preparations: • 1. If using cell culture; cells to be incubated at 30° C. for approximately 4-6 days prior to being used. Day of assay lift cells using accutase and re-suspend in 20 ml cell buffer to a density of 0.8 to 1e6 cells/ml. • 2. If using assay ready cryovials; rapidly thaw two cryovials at 37° C. and slowly pipette into 23 ml external solution • 3. All compounds were acoustically dispensed in quadruplicate using a Labcyte Echo. […]
Exam item: assign 1 to entries whose IC50 is below 8 µM and -1 to entries at or above 8 µM. Note that a value of exactly 8 µM receives -1.

IN: # check: IC50 < 8 µM for "C[C@@H]1Cc2c(ccc3[nH]nc(F)c23)[C@@H](c2ccc(NC3CN(CCCF)C3)c(F)n2)N1CC(F)(F)CO"
OUT: -1

IN: # check: IC50 < 8 µM for "COc1cc(NC2CN(CCCF)C2)ccc1[C@@H]1c2ccc3[nH]ncc3c2C[C@@H](C)N1CC(C)(C)F"
OUT: -1

IN: # check: IC50 < 8 µM for "C[C@@H]1Cc2c(ccc3[nH]ncc23)[C@@H](c2ccc(NC3CN(CCCF)C3)cn2)N1CC1(F)CC1"
OUT: -1

IN: # check: IC50 < 8 µM for "C[C@@H]1Cc2c(ccc3[nH]nc(F)c23)[C@@H](c2cnc(NC3CN(CCCF)C3)cn2)N1CC(F)(F)F"
OUT: -1

IN: # check: IC50 < 8 µM for "C[C@@H]1Cc2c(ccc3[nH]ncc23)[C@@H](c2ncc(NC3CN(CCCF)C3)cc2F)N1CC1(F)CC1"
OUT: -1

IN: # check: IC50 < 8 µM for "C[C@@H]1Cc2c(ccc3[nH]ncc23)[C@@H](c2ccc(NC3CN(CCCF)C3)cn2)N1CC(F)F"
OUT: -1

IN: # check: IC50 < 8 µM for "C[C@@H]1Cc2c(ccc3[nH]ncc23)[C@@H](c2ncc(NC3CN(CCCF)C3)cc2F)N1CC(F)(F)F"
OUT: -1

IN: # check: IC50 < 8 µM for "CC(C)CN1[C@H](c2ccc(NC3CN(CCCF)C3)cn2)c2ccc3[nH]ncc3c2C[C@H]1C"
OUT: -1

IN: # check: IC50 < 8 µM for "C[C@@H]1Cc2c(ccc3[nH]nc(F)c23)[C@@H](c2ccc(NC3CN(CCCF)C3)cn2)N1CC(F)(F)F"
OUT: -1

IN: # check: IC50 < 8 µM for "C[C@@H]1Cc2c(ccc3[nH]ncc23)[C@@H](c2ncc(NC3CN(CCCF)C3)cc2F)N1CC(F)F"
OUT: -1

IN: # check: IC50 < 8 µM for "C[C@@H]1Cc2c(ccc3[nH]nc(F)c23)[C@@H](c2ccc(NC3CN(CCCF)C3)cn2)N1CC(F)(F)CO"
OUT: -1

IN: # check: IC50 < 8 µM for "C[C@@H]1Cc2c(ccc3[nH]ncc23)[C@@H](c2ccc(N(C)C3CN(CCCF)C3)cn2)N1CC1(F)CC1"
OUT: -1

IN: # check: IC50 < 8 µM for "COc1cc(NC2CN(CCCF)C2)ccc1[C@]1(C)c2ccc3[nH]ncc3c2C[C@@H](C)N1CC(F)F"
OUT: 1

IN: # check: IC50 < 8 µM for "C[C@@H]1Cc2c(ccc3[nH]ncc23)[C@@H](c2ccc(N(C)C3CN(CCCF)C3)cn2)N1CC(F)(F)F"
OUT: 1

IN: # check: IC50 < 8 µM for "C[C@@H]1Cc2c(ccc3[nH]ncc23)[C@@H](c2ccc(NC3CN(CCCF)C3)c(F)c2)N1CC(F)(F)F"
OUT: 1

IN: # check: IC50 < 8 µM for "CC1(C)Cc2c(ccc3[nH]ncc23)[C@@H](c2ccc(NC3CN(CCCF)C3)cn2)N1CC(F)F"
OUT: -1

IN: # check: IC50 < 8 µM for "COc1cc(NC2CN(CCCF)C2)ccc1[C@@H]1c2ccc3[nH]ncc3c2C[C@@H](C)N1CC(F)(F)CO"
OUT: -1

IN: # check: IC50 < 8 µM for "C[C@@H]1Cc2c(ccc3[nH]ncc23)[C@@H](c2ccc(NC3CN(CCCF)C3)cn2)N1CC(F)(F)CO"
OUT: -1
